TARGET OR SYSTEM: T1, recombinant full length human tissue factor pathway inhibitor (TFPI) (human, UniProt P10646 29-304)
T1 construct: also called TFPI1; human TFPI
METHOD: SPR (Biacore), recombinant human TFPI
Parameter: pKd. Scope: all listed entries.
Just the number, please; pKd means minus log10 of the concentration in mol/L.

Some binders with known pKd results, for comparison:
{"columns": ["BINDER", "RESULT NUMBER"],
 "data": [
  ["HzTFPI4F36 HC-FR3, S77T (antibody, human IgG4 S228P, kappa, name in Kabat numbering, V domains shown, Mutated CDR-grafted heavy chain with wild type CDR-grafted light chain; Kabat numbering) VH: EVQLVESGGGLVKPGGSLRLSCAASGFTFSNYAMSWVRQAPGKGLEWVSTISRSGSYSYYADSVKGRFTISRDNAKNTLYLQMSSLRSEDTAMYYCARLGGYDEGDAMDSWGQGTTVTVSS VL: DIVMTQTPLSLSVTPGQPASISCKSSQSLLESDGKTYLNWYLQKPGQSPQLLIYLVSILDSGVPDRFSGSGSGTDFTLKISRVEAEDVGVYYCLQATHFPQTFGGGTKVEIKR", 8.11],
  ["HzTFPI4F36 HC-KABAT CDR2 (antibody, human IgG4 S228P, kappa, name in Kabat numbering, V domains shown, Mutated CDR-grafted heavy chain with wild type CDR-grafted light chain; Kabat numbering) VH: EVQLVESGGGLVKPGGSLRLSCAASGFTFSNYAMSWVRQAPGKGLEWVSTISRSGSYSYFPDSVQGRFTISRDNAKNSLYLQMNSLRAEDTAVYYCARLGGYDEGDAMDSWGQGTTVTVSS VL: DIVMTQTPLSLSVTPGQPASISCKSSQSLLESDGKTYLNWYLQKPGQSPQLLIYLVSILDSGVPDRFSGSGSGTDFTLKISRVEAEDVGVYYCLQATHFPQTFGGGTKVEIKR", 9.05],
  ["HzTFPI4F36 HC-G44R, A60P, K64Q (antibody, human IgG4 S228P, kappa, name in Kabat numbering, V domains shown, Mutated CDR-grafted heavy chain with wild type CDR-grafted light chain; Kabat numbering) VH: EVQLVESGGGLVKPGGSLRLSCAASGFTFSNYAMSWVRQAPGKRLEWVSTISRSGSYSYYPDSVQGRFTISRDNAKNSLYLQMNSLRAEDTAVYYCARLGGYDEGDAMDSWGQGTTVTVSS VL: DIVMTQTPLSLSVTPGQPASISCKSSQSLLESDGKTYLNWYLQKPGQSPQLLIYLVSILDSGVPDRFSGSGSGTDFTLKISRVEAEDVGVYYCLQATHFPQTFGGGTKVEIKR", 10.52],
  ["HzTFPI4F36 (mAbTFPI2021) humanized monoclonal antibody (antibody, human IgG4 S228P, kappa, V domains shown, human kappa/IgG4(S241P); also called mAb2021; mAbTFPI4F36) VH: EVQLVESGGGLVKPGGSLRLSCAASGFTFSNYAMSWVRQTPEKRLEWVATISRSGSYSYFPDSVQGRFTISRDNAKNSLYLQMNSLRAEDTAVYYCARLGGYDEGDAMDSWGQGTTVTVSS VL: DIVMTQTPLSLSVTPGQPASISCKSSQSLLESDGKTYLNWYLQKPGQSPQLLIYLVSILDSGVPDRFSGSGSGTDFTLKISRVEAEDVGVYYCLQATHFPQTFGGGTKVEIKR", 10.59]
]}

// query Please give the measured pKd for this binder: HzTFPI4F36 HC-G42E, G44R, A60P, K64Q (antibody, human IgG4 S228P, kappa, name in Kabat numbering, V domains shown, Mutated CDR-grafted heavy chain with wild type CDR-grafted light chain; Kabat numbering; also called HzTFPI4F36 G42E, G44R, A60P, K64Q) VH: EVQLVESGGGLVKPGGSLRLSCAASGFTFSNYAMSWVRQAPEKRLEWVSTISRSGSYSYYPDSVQGRFTISRDNAKNSLYLQMNSLRAEDTAVYYCARLGGYDEGDAMDSWGQGTTVTVSS VL: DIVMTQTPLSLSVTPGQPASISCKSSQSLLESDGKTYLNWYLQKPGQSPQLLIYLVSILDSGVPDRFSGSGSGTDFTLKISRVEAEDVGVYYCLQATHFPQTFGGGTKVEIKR
// result 10.03
